target-or-system: T1, mouse serum albumin (mouse, UniProt P07724 25-608)
T1 construct: also called MSA
T1 sequence (P07724 25-608 limits assumed): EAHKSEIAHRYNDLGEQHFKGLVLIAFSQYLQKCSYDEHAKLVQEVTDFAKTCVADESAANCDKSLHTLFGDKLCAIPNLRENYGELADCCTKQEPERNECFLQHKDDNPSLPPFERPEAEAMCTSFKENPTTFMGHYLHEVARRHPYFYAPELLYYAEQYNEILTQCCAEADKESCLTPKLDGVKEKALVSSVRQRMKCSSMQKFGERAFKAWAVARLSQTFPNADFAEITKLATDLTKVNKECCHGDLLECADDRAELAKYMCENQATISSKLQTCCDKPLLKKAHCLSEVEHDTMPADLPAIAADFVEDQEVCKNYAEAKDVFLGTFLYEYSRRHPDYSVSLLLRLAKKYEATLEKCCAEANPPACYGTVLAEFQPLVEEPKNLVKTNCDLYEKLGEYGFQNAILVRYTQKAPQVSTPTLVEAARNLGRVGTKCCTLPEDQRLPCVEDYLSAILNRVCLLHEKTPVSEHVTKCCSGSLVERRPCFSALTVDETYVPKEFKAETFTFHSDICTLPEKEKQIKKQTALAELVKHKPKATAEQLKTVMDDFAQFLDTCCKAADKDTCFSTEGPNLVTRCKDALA
protocol-text: Octet HTX (ForteBio), HCAb on AHC sensor, 1:1 fit
Form field: koff (one value per entry).
readout-name: koff (s⁻¹)

1) CNG-HSA-117 (VHH) VHH: KVQLVESGGGLVQPGNSLRLSCAASGFTFSSFGMSWVRQAPGKGLEWVSSISGSGSDTLYADSVKGRFTISRDNSKNTLYLQMNSLRAEDTAVYYCTIGGSLTRSSQGTLVTVSS
0.00877
2) CNG-HSA-113 (VHH) VHH: GVQLLESGGGLVQPGGSLRLSCAASGFTFSSFGMSWVRQAPGKGLEWVSSISGTGSDTLYADSVKGRFTISRDNSKNTLYLQMNSLRPEDTAVYYCTIGGSLRYSSQGTLVTVSS
0.0101
3) CNG-HSA-104 (VHH) VHH: KVQLLESGGGLVQPGGSLRLSCAASGFTFHSFGMSWVRQAPGKGLEWVSSISGSGSDTLYADSVKGRFTISRDNSKNTLYLQMNSLRPEDTAVYYCTIGGSLSRSSQGTLVTVSS
0.0105
4) CNG-HSA-108 (VHH) VHH: KVQLVESGGGLVQPGGSLRLSCAASGFTFGSFGMSWVRQAPGKGLEWVSSISGSGADTLYADSVKGRFTISRDNSKNTLYLQMNSLRAEDTAVYYCTIGGSLRASSQGTLVTVSS
0.00185
5) CNG-HSA-110 (VHH) VHH: KVQLVESGGGLVQPGNSLRLSCAASGFTFSSFGMSWVRQAPGKGLEWVSSISGSGGDTLYADSAKGRFTISRDNSKNTLYLQMNSLRPEDTAVYYCTIGGSLSRSSQGTLVTVSS
0.00838
6) CNG-HSA-116 (VHH) VHH: KVQLVESGGGLVQPGGSLRLSCAASGFTFSSFGMSWVRQAPGKGPEWVSSISGSGSDTLYADSVKGRFTISRDNSKNTLYLQMNSLRAEDTAVYYCTIGGSLRASSQGTLVTVSS
0.00108
7) CNG-HSA-107 (VHH) VHH: KVQLLESGGGLVQPGGSLRLSCAASGFTFSSFGMSWVRQAPGKGLEWVSSISGSGSDTLYADSVRGRFTISRDNSKNTLYLQMNSLRAEDTAVYYCSIGGSLIRSSQGTLVTVSS
0.00851
8) CNG-HSA-109 (VHH) VHH: KVQLVESGGGLVQPGNSLRLSCAASGFTFGSFGMSWVRQAPGKGPEWVSSISGSGSDTLYADSVKGRFTISRDNSKNTLYLQMNSLRPEDTAVYYCTIGGSLSRSSQGTLVTVSS
0.00284

Data origin: patent US20230037815A1
